# experimental_conditions: dog, in vivo, iv, 0.2 mg/kg
outcome_measure: PBMC to Plasma ratio

• CC(C)OC(=O)[C@H](C)NP(=O)(COCCn1cnc2c(NC3CC3)nc(N)nc21)Oc1ccccc1 (stereo partly shown) = 17

Answer with the recorded PBMC to Plasma ratio of C[C@H](NP(=O)(COCCn1cnc2c(NC3CC3)nc(N)nc21)Oc1ccccc1)C(=O)OC(C)(C)C (stereo partly shown) [MonoAlatBu] only.
12

Answer with the recorded PBMC to Plasma ratio of CC(C)OC(=O)[C@H](C)NP(=O)(COCCn1cnc2c(NC3CC3)nc(N)nc21)N[C@@H](C)C(=O)OC(C)C only.
1.2

Answer with the recorded PBMC to Plasma ratio of C[C@H](NP(=O)(COCCn1cnc2c(NC3CC3)nc(N)nc21)Oc1ccccc1)C(=O)OC(C)(C)C (single isomer, unassigned) [MonoAlatBu(A)] only.
19
